Target: human TLR7 (Homo sapiens)
Sequence (Q9NYK1 27-1049): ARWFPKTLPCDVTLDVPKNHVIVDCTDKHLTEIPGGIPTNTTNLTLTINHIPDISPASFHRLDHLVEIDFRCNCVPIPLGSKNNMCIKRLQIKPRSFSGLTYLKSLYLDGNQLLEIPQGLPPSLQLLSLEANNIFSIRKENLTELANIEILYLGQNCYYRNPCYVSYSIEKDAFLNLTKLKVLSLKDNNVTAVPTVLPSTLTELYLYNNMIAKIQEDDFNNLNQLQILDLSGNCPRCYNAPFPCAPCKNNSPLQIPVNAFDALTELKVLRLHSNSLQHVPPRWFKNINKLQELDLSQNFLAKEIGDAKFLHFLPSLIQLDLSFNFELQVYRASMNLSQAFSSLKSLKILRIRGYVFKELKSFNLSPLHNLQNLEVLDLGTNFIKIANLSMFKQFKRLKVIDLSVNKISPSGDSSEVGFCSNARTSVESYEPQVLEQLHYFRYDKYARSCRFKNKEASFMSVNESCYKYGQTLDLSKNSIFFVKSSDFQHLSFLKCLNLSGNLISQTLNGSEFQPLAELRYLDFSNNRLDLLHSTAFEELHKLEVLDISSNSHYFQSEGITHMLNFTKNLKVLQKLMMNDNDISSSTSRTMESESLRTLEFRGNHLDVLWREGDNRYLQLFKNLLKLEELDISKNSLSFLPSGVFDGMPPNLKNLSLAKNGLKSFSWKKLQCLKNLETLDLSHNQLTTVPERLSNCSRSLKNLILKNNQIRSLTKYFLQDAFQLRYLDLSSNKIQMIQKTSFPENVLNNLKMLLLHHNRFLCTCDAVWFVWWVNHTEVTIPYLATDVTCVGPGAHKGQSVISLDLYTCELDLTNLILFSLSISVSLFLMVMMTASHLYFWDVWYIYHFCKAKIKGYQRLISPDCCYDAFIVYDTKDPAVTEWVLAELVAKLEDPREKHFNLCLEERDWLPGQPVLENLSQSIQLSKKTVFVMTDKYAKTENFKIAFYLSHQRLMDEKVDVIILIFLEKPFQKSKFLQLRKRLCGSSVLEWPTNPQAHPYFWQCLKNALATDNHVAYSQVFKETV
Assay: HEK293-Blue-hTLR-7 cells assay (SEAP reporter, R848 stimulation)
Settings: HEK293-Blue-hTLR7 cells, R848, 20 hrs
// returns false (0) unless IC50 is strictly below 20 nM, in which case true (1)

COMPOUND: C[C@@H]1CN(c2ccc(C(F)(F)F)c3ncccc23)C[C@H](C(=O)NC2CC3COCC(C2)N3)O1 (stereo partly shown) [Example 33]
ASSIGNED_CATEGORY: true (1)

Please state whether IC50 is below 20 nM for C[C@@H]1CN(c2ccc([N+](=O)[O-])c3ncccc23)C[C@H](C(=O)NC2CCN(C)CC2)O1 [Example 20]
true (1)

Please state whether IC50 is below 20 nM for C[C@@H]1CN(c2ccc(I)c3ncccc23)C[C@H](C(=O)NC2CNCC2F)O1 (stereo partly shown) [Example 40]
true (1)

Please state whether IC50 is below 20 nM for C[C@@H]1CN(c2ccc(C(F)(F)F)c3ncccc23)C[C@H](C(=O)NC2CCN(C)CC2)O1 [Example 5]
true (1)

Please state whether IC50 is below 20 nM for C[C@@H]1CN(c2ccc(C(F)(F)F)c3ncccc23)C[C@H](C(=O)NC2C3CNCC2COC3)O1 (single isomer, unassigned) [Example 46B]
false (0)

Please state whether IC50 is below 20 nM for C[C@@H]1CN(c2ccc(C(F)(F)F)c3ncccc23)C[C@H](C(=O)NC2CC3CNCC(C3)C2)O1 (stereo partly shown) [Example 37]
true (1)

---

Molecular target: human TLR7 (Homo sapiens, UniProt Q9NYK1)
Construct: host or cells: HEK293 (HEK-Blue hTLR7)
Assay: HEK293-Blue-hTLR-7 cells assay (SEAP reporter, R848 stimulation)
Format: cell-based
Settings: HEK293-Blue-hTLR7 cells, R848, 20 hrs
MEASURE_NAME: IC50 (µM)
Give bare numbers, in µM.

COMPOUND: C[C@@H]1CN(c2ccc(C(F)(F)F)c3ncccc23)C[C@H](C(=O)NC2CC3CNCC32)O1 (single isomer, unassigned) [Example 49C]
MEASURED: 0.008

COMPOUND: C[C@@H]1CN(c2ccc(C(F)(F)F)c3ncccc23)C[C@H](C(=O)NC2CNCCOC2)O1 (stereo partly drawn) [Example 14]
MEASURED: 0.037

COMPOUND: C[C@@H]1CN(c2ccc(Cl)c3ncccc23)C[C@H](C(=O)NC2CCCNCC2)O1 (stereo partly drawn) [Example 25]
MEASURED: 0.012

// input: 7 compounds below; output: IC50 for each
1. C[C@@H]1CN(c2ccc(C(F)(F)F)c3ncccc23)C[C@H](C(=O)N2CCC3(CCNCC3)CC2)O1 [Example 32]
2. CC(NC(=O)[C@H]1CN(c2ccc(C(F)(F)F)c3ncccc23)C[C@@H](C)O1)C1CN(C)CCO1 (single isomer, unassigned) [Example 35A]
3. C[C@H]1C[C@@H](N)CN(c2ccc(Cl)c3ncccc23)C1 [Example 23]
4. C[C@@H]1CN(c2ccc(Cl)c3ncccc23)C[C@H](C(=O)NCC2CN(C)CCO2)O1 (stereo partly drawn) [Example 26]
5. Cc1ccc(N2C[C@@H](C)O[C@@H](C(=O)N[C@@H]3CNC[C@@H]3F)C2)c2cccnc12 [Example 21]
6. C[C@@H]1CN(c2ccc(I)c3ncccc23)C[C@H](C(=O)NCC2CN(C)CCO2)O1 (stereo partly drawn) [Example 39]
7. C[C@@H]1CN(c2ccc(C(F)(F)F)c3ncccc23)C[C@H](C(=O)N2CCC(N)CC2)O1 [Example 12]

1: 0.078; 2: 0.028; 3: 0.007; 4: 0.023; 5: 0.071; 6: 0.007; 7: 0.15

// input: 3 compounds below; output: IC50 for each
1. Cc1ccc(N2C[C@@H](C)O[C@@H](C(=O)NCC3CN(C)CCO3)C2)c2cccnc12 (stereo partly drawn) [Example 17]
2. C[C@@H]1CN(c2ccc(C(F)(F)F)c3ncccc23)C[C@H](C(=O)NC2CC3CNCC32)O1 (single isomer, unassigned) [Example 49A]
3. C[C@@H]1CN(c2ccc(Br)c3ncccc23)C[C@H](C(=O)NC2CNCC2F)O1 (stereo partly drawn) [Example 41]

1. 0.14
2. 0.025
3. 0.015

---

Target: human TLR8 (Homo sapiens, UniProt Q9NR97)
Sequence (Q9NR97 27-1041): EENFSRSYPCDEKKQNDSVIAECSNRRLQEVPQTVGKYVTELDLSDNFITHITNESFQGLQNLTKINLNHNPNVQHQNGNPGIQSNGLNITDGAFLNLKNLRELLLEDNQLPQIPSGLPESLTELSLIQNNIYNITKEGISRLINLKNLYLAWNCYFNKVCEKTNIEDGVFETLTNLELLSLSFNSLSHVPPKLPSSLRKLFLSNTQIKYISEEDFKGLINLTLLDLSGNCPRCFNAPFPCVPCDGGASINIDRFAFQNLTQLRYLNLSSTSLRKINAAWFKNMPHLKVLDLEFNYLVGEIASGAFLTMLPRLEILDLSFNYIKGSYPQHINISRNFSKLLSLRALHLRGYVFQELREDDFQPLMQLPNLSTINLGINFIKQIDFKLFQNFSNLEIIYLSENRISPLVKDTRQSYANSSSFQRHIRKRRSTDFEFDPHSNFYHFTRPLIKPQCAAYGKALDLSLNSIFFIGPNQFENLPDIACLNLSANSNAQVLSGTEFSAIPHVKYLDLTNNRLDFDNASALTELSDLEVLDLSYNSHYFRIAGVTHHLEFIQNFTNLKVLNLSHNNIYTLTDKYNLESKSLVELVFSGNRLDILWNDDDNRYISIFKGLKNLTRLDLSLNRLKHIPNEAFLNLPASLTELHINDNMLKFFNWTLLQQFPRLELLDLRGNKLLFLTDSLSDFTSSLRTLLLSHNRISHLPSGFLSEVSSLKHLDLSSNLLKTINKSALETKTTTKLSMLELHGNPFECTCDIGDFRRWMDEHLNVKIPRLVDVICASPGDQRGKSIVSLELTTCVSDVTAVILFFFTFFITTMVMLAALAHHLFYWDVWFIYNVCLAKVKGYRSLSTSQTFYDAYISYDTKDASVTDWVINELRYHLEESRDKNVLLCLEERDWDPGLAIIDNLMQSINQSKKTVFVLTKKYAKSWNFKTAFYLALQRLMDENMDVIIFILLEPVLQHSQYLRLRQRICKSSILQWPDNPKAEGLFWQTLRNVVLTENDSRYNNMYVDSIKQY
Experiment: HEK293-Blue-hTLR-8 cells assay (SEAP reporter, R848 stimulation)
Conditions: HEK293-Blue-hTLR8 cells, R848, 20 hrs
I'd be grateful if you could share measured IC50 for these entries.

Worked examples, 5 molecules total:
MOLECULE: C[C@@H]1CN(c2ccc([N+](=O)[O-])c3ncccc23)C[C@H](C(=O)N[C@@H]2CNC[C@@H]2F)O1
MEASURE_NAME: IC50
MEASURED: < 3 nM
--
MOLECULE: C[C@H]1C[C@@H](N)CN(c2ccc(C(F)(F)F)c3ncccc23)C1
MEASURE_NAME: IC50
MEASURED: < 3 nM
--
MOLECULE: C[C@@H]1CN(c2ccc(Cl)c3ncccc23)C[C@H](C(=O)NC2CCCNCC2)O1 (stereo partly drawn)
MEASURE_NAME: IC50
MEASURED: < 3 nM
--
MOLECULE: C[C@@H]1CN(c2ccc([N+](=O)[O-])c3ncccc23)C[C@H](C(=O)NC2CCN(C)CC2)O1
MEASURE_NAME: IC50
MEASURED: < 3 nM
--
MOLECULE: C[C@@H]1CN(c2ccc(I)c3ncccc23)C[C@H](C(=O)NCC2CN(C)CCO2)O1 (stereo partly drawn)
MEASURE_NAME: IC50
MEASURED: < 3 nM

# ---- query molecule ----
What value of IC50 has been reported for the following molecule? C[C@@H]1CN(c2ccc(C(F)(F)F)c3ncccc23)C[C@H](C(=O)N[C@@H]2CNC[C@@H]2F)O1 (single isomer, unassigned)
< 3 nM

---

I'd be grateful if you could share measured IC50 for these entries.
Molecular target: human TLR9 (Homo sapiens)
Sequence (Q9NR96 26-1032): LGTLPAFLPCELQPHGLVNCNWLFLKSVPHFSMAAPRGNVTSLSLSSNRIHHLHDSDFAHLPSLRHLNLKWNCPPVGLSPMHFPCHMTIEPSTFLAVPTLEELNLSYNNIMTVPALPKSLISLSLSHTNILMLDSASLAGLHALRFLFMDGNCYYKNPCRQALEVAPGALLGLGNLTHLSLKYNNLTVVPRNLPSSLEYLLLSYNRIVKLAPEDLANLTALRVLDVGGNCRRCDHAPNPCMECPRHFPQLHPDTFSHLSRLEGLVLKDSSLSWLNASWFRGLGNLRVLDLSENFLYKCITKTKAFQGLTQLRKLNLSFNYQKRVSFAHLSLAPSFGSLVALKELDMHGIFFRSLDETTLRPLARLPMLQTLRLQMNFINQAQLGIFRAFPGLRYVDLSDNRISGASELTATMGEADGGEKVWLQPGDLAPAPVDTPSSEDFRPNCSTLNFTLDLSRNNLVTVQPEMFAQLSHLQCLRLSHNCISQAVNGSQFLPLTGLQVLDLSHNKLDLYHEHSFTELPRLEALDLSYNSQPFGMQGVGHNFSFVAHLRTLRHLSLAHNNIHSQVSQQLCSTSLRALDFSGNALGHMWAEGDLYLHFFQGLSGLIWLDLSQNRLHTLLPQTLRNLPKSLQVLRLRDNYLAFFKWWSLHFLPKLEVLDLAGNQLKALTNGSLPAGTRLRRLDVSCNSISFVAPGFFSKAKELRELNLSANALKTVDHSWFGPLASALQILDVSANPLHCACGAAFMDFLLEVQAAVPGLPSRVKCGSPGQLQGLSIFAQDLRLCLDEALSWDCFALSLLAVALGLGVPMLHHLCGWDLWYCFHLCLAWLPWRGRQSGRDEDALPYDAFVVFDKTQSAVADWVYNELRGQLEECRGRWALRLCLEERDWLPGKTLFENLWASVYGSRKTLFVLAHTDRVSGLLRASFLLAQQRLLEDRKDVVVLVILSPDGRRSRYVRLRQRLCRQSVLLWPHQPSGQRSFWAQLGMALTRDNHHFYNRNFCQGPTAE
Assay: HEK293-Blue-hTLR-9 cells assay (SEAP reporter, ODN2006 stimulation)
Settings: HEK293-Blue-hTLR9 cells, ODN2006, 20 hrs
Give bare numbers, in µM.

MOLECULE: C[C@@H]1CN(c2ccc(C(F)(F)F)c3ncccc23)C[C@H](C(=O)N2CCC3(CCNC3)C2)O1 (stereo partly shown)
MEASURE_NAME: IC50
MEASURED: 12.3

MOLECULE: C[C@@H]1CN(c2ccc(C(F)(F)F)c3ncccc23)C[C@H](C(=O)NC2CC3CCCC(C2)N3)O1 (single isomer, unassigned) [Example 34B]
MEASURE_NAME: IC50
MEASURED: 10

MOLECULE: Cc1ccc(N2C[C@@H](C)O[C@@H](C(=O)N[C@@H]3CNC[C@@H]3F)C2)c2cccnc12
MEASURE_NAME: IC50
MEASURED: 38

MOLECULE: C[C@@H]1CN(c2ccc([N+](=O)[O-])c3ncccc23)C[C@H](C(=O)N[C@@H]2CNC[C@@H]2F)O1
MEASURE_NAME: IC50
MEASURED: 50.7

MOLECULE: C[C@@H]1CN(c2ccc(C(F)(F)F)c3ncccc23)C[C@H](C(=O)NC2CNCCOC2)O1 (stereo partly shown)
MEASURE_NAME: IC50
MEASURED: 29.4

MOLECULE: C[C@@H]1CN(c2ccc([N+](=O)[O-])c3ncccc23)C[C@H](C(=O)NC2CCN(C)CC2)O1
MEASURE_NAME: IC50
MEASURED: 14.9

MOLECULE: C[C@@H]1CN(c2ccc(C(F)(F)F)c3ncccc23)C[C@H](C(=O)N[C@H]2CNC[C@H]2F)O1 (single isomer, unassigned)
MEASURE_NAME: IC50
MEASURED: 34.6

MOLECULE: Cc1ccc(N2C[C@@H](C)O[C@@H](C(=O)NC3CCN(C)CC3)C2)c2cccnc12
MEASURE_NAME: IC50
MEASURED: 39.9

MOLECULE: CC(NC(=O)[C@H]1CN(c2ccc(C(F)(F)F)c3ncccc23)C[C@@H](C)O1)C1CN(C)CCO1 (single isomer, unassigned) [Example 35B]
MEASURE_NAME: IC50
MEASURED: 50.2

MOLECULE: C[C@@H]1CN(c2ccc(C(F)(F)F)c3ncccc23)C[C@H](C(=O)NCC2CCCCN2C)O1 (stereo partly shown)
MEASURE_NAME: IC50
MEASURED: 11.4

// input: 7 molecules below; output: IC50 for each
1. C[C@@H]1CN(c2ccc(C(F)(F)F)c3ncccc23)C[C@H](C(=O)NC2CCN(C)CC2)O1
2. C[C@@H]1CN(c2ccc(C(F)(F)F)c3ncccc23)C[C@H](C(=O)N2CCC3(CCNCC3)CC2)O1
3. C[C@@H]1CN(c2ccc(C(F)(F)F)c3ncccc23)C[C@H](C(=O)N2CCC(N)CC2)O1
4. C[C@@H]1CN(c2ccc(C(F)(F)F)c3ncccc23)C[C@H](C(=O)NC[C@@H]2C[C@@H](F)CN2)O1
5. C[C@@H]1CN(c2ccc(C(F)(F)F)c3ncccc23)C[C@H](C(=O)NC2CC3CNCC32)O1 (single isomer, unassigned) [Example 49A]
6. C[C@@H]1CN(c2ccc(Br)c3ncccc23)C[C@H](C(=O)NC2CCN(C)CC2)O1
7. C[C@@H]1CN(c2ccc(C(F)(F)F)c3ncccc23)C[C@H](C(=O)NC2CC3COCC(C2)N3)O1 (stereo partly shown)

1. 15.5
2. 3.7
3. 6.3
4. 28.1
5. 10.7
6. 10.6
7. 23.6

// input: 2 molecules below; output: IC50 for each
1. C[C@@H]1CN(c2ccc(C(F)(F)F)c3ncccc23)C[C@H](C(=O)NCC2CNCCO2)O1 (stereo partly shown)
2. C[C@H]1C[C@@H](N)CN(c2ccc(Cl)c3ncccc23)C1

1: 11.7; 2: 7
